Consider the following compounds; for each one, report its GI50.
- Test system: RXF 631
- test-name: NCI tumour cell line growth inhibition, 48 h
Activity calls are given as the source filed them. Rule as the data show it: active = GI50 up to about 1.1 µM and inactive = higher.

Query block: Value lookup for GI50; key = O=c1c2cccc3cccc(c4n1CCCN=4)c32
Result block: > 100 µM (inactive)

Query block: Value lookup for GI50; key = CC(=O)NNc1nc(C)c(C(/C=C/c2ccc(Cl)cc2)=N/NC(=S)NN)s1
Result block: > 100 µM (inactive)

Query block: Value lookup for GI50; key = Sc1nnc(COc2ccc(Cl)cc2)[nH]1
Result block: > 100 µM (inactive)

Query block: Value lookup for GI50; key = O=C1C[C@@H]2CCCC[C@@H]2C12SCCS2
Result block: > 100 µM (inactive)

Query block: Value lookup for GI50; key = c1ccc2c(CNCCCCCCNCc3cccc4ccccc34)cccc2c1
Result block: 3.74 µM (inactive)

Query block: Value lookup for GI50; key = O=C(CCc1n[nH]c(=S)o1)Nc1ccccc1C(F)(F)F
Result block: > 100 µM (inactive)

Query block: Value lookup for GI50; key = BrC12c3ccccc3Sc3ccccc3C1(Br)c1ccccc12 (stereo unspecified)
Result block: 25.9 µM (inactive)

Query block: Value lookup for GI50; key = CCOC(=O)C(/C(=N/NC(=O)OC)C(=O)Nc1ccc(C(C)=O)cc1)c1cnc2ccccc2n1 (stereo unspecified)
Result block: > 100 µM (inactive)

Query block: Value lookup for GI50; key = COC1C2C[C@@H](O)CCC2C(C(=O)OCCl)C[C@H]1O (stereo partly specified)
Result block: > 100 µM (inactive)

Query block: Value lookup for GI50; key = COc1ccc(/C(Cl)=C(\C=O)c2ccc(OC)cc2)cc1
Result block: 58.3 µM (inactive)

Query block: Value lookup for GI50; key = COC(=O)C(=O)C(CC(=O)Nc1ccc(C)cc1)C(=O)OC (stereo unspecified)
Result block: > 100 µM (inactive)

====

Consider the following compounds; for each one, report its GI50.
- Tested on: DMS-273
- test-name: NCI tumour cell line growth inhibition, 48 h
Active and inactive are the calls of the source. No stated cut-off is given here; in the data, active = GI50 up to about 1.1 µM and inactive = higher.

Query block: Value lookup for GI50; key = COc1ccc([C@@H]2CC(=O)N2)cc1
Result block: > 100 µM (inactive)

Query block: Value lookup for GI50; key = O=C1C=Cc2ncccc2C1=O
Result block: 17 µM (inactive)

Query block: Value lookup for GI50; key = Cn1c2c(c3ccccc31)CCN(CCCN1CCN(c3cccc(Cl)c3)CC1)C2=O
Result block: 24.1 µM (inactive)

Query block: Value lookup for GI50; key = O=C(NCCCCCCNC(=O)c1cccc2ccccc12)c1cccc2ccccc12
Result block: 2.02 µM (inactive)

Query block: Value lookup for GI50; key = CC(C)C(Sc1nc(-c2ccccc2)c(-c2ccccc2)[nH]1)C(=O)NN (stereo not given)
Result block: > 100 µM (inactive)

Query block: Value lookup for GI50; key = O=C1C2=C(CCCC2)Nc2cccc3ncn1c23
Result block: > 100 µM (inactive)

Query block: Value lookup for GI50; key = CN1CCC(CN2c3ccccc3Sc3ccccc32)CC1
Result block: 13.4 µM (inactive)

Query block: Value lookup for GI50; key = COC(=O)c1ccccc1NC(=O)C(=O)NNC(=O)c1ccncc1
Result block: > 100 µM (inactive)

Query block: Value lookup for GI50; key = COc1cccc2c1C(=O)C1(O)CCCCC21 (stereo not given)
Result block: > 100 µM (inactive)

Query block: Value lookup for GI50; key = CCOC(=O)Cn1c(=O)n(C)c(=O)c2c1ncn2Cc1ccccc1
Result block: > 100 µM (inactive)

====

- Tested on: SK-OV-3
- test-name: NCI tumour cell line growth inhibition, 48 h
Active and inactive are the calls of the source. Rule as the data show it: active = GI50 up to about 1.1 µM and inactive = higher.
Result category, one only: true for active, false for inactive

Query block: Call for entry CC1(C)[C@@H]2C[C@H]1C(Cc1ccccc1C[C@H]1c3cc(-c4ccccn4)ncc3[C@H]3C[C@@H]1C3(C)C)c1cc(-c3ccccn3)ncc12 (stereo not given in full) :
Result block: true

Query block: Call for entry O=C1C=Cc2ncccc2C1=O :
Result block: false

Query block: Call for entry C[C@]12Cc3cnc(-c4ccccc4)nc3C[C@@H]1CC[C@@H]1[C@@H]2CC[C@@]2(C)[C@H]1CC[C@]2(C)O :
Result block: false

Query block: Call for entry N#Cc1ccccc1NC(=O)/C(=N\NC(=O)c1ccncc1)C(c1cnc2ccc([N+](=O)[O-])cc2n1)[N+](=O)[O-] (stereo not given) :
Result block: false

Query block: Call for entry O=c1c2cccc3cccc(c4n1CCCN=4)c32 :
Result block: false

====

- Tested on: RPMI-8226
- test-name: NCI tumour cell line growth inhibition, 48 h
Active and inactive are the calls of the source. No stated cut-off is given here; in the data, active = GI50 up to about 1.1 µM and inactive = higher.
reported-endpoint: GI50

Query block: Value lookup for GI50; key = CCc1ccc(Nc2cc(=O)[nH]c(=S)n2C)cc1
Result block: > 100 µM (inactive)

Query block: Value lookup for GI50; key = N=c1c2c(=S)n(-c3ccccc3)c(=S)n(-c3ccccc3)c2nc(SCCCN2CCN(c3cccc(Cl)c3)CC2)n1-c1ccccc1
Result block: > 100 µM (inactive)

Query block: Value lookup for GI50; key = COc1cc2nc3c(=C(C#N)C#N)c4ccccc4n3c(=O)c2cc1OC
Result block: > 100 µM (inactive)

Query block: Value lookup for GI50; key = C[C@]12CC[C@@H]3c4ccc(O)cc4CC[C@H]3[C@@H]1C/C(=C\c1ccc([N+](=O)[O-])cc1)C2=O
Result block: > 100 µM (inactive)

Query block: Value lookup for GI50; key = Cc1c(Cl)cccc1NC(=O)C(=O)C1C(=O)NC(=O)NC1=O
Result block: > 100 µM (inactive)

Query block: Value lookup for GI50; key = COc1cccc(NC(=O)CC(=O)n2nc(-c3ccccc3)c(/N=N/c3ccc(Cl)cc3)c2-c2ccccc2)c1
Result block: 12 µM (inactive)

====

- System: HCT-116
- test-name: NCI tumour cell line growth inhibition, 48 h
Calls of active or inactive are those of the source. No stated cut-off is given here; in the data, active = GI50 up to about 1.1 µM and inactive = higher.
Result category, one only: active, inactive

Query block: Call for entry C=CC(Br)(CBr)CCC(Br)C(C)(C)Cl (configuration not stated) :
Result block: inactive

Query block: Call for entry O=C1CCC2(O)C3Cc4ccc(Oc5nnnn5-c5ccccc5)c5c4C2(CCN3CC2CC2)C1O5 (configuration not stated) :
Result block: inactive

Query block: Call for entry c1ccc2c(CNCCCCCCNCc3cccc4ccccc34)cccc2c1 :
Result block: inactive

Query block: Call for entry CC(Oc1ccc(OCC2CCCCC2)cc1)C(=O)NCCO (configuration not stated) :
Result block: inactive

Query block: Call for entry CN1C/C(=C\c2ccccc2[N+](=O)[O-])C(=O)/C(=C/c2ccccc2[N+](=O)[O-])C1 :
Result block: active

Query block: Call for entry CC(C)C1=C(Cc2ccccc2)C(=O)O/C1=C\c1ccc(O)c(Cl)c1 :
Result block: inactive

Query block: Call for entry OC[C@H]1N[C@H](CO)[C@@H](O)[C@H]1O :
Result block: inactive

Query block: Call for entry CCN1C(=O)C(=Cc2ccc(-c3ccccc3)cc2)C(=O)N(CC)C1=S :
Result block: inactive

Query block: Call for entry NCCNCCCNC(=O)c1cc(-c2ccccc2)nc2ccccc12 :
Result block: inactive

Query block: Call for entry COc1c(-c2nc3ccc(N4CCN(C)CC4)nc3[nH]2)cc(OC)c2[nH]c(CO)nc12 :
Result block: inactive

Query block: Call for entry COP1(=O)CC2C(Cl)(Cl)C2(C)C1 (configuration not stated) :
Result block: inactive

Query block: Call for entry CCc1ccc(Nc2cc(=O)[nH]c(=S)n2C)cc1 :
Result block: inactive

Query block: Call for entry COC(=O)c1ccccc1NC(=O)C(=O)NNC(=O)c1ccncc1 :
Result block: inactive

Query block: Call for entry Cc1c2cccc-2ccc2c3ccccc3n(C(=O)c3ccc(Cl)cc3)c12 :
Result block: inactive

Query block: Call for entry CCN(CC)CCOc1ccc(N2Cc3cc(OC)c(OC)cc3C2=O)cc1 :
Result block: inactive

Query block: Call for entry Cc1ccc(C2=C(C#N)C(=O)N3CCN=C3S2)cc1 :
Result block: inactive

Query block: Call for entry CCOCCOc1ccc(OCCOCC)cc1 :
Result block: inactive

Query block: Call for entry COC(=O)/C=C(\C)CCC1SC1(C)C (configuration not stated) :
Result block: inactive

Query block: Call for entry O=C(/C=C1\Nc2ccc([N+](=O)[O-])cc2N\C1=C/C(=O)c1ccc(F)cc1)c1ccc(F)cc1 :
Result block: inactive

Query block: Call for entry Cc1cccc2sc(NC(=O)NS(=O)(=O)n3cnc4ccccc43)nc12 :
Result block: inactive

Query block: Call for entry CC1=C(/C=C/C(C)=C/C=C/C(C)=C/C(=O)Nc2ccc(O)cc2)C(C)(C)CCC1 [FENRETINIDE] :
Result block: inactive

Query block: Call for entry Cc1ccc(N2C[N+](c3ccccc3)=NC(c3ccccc3)=N2)cc1 :
Result block: inactive

====

- Tested on: HOP-92
- test-name: NCI tumour cell line growth inhibition, 48 h
The source made the active and inactive calls. Rule as the data show it: active = GI50 up to about 1.1 µM and inactive = higher.
Consider the following molecules; for each one, report its GI50.

Query block: Value lookup for GI50; key = CC#CCCN(CC#N)Cc1ccccc1
Result block: > 100 µM (inactive)

Query block: Value lookup for GI50; key = COc1ccc(/C=N\O[Si](C)(C)C(C)(C)C)cc1O[Si](C)(C)C(C)(C)C
Result block: 22.6 µM (inactive)

Query block: Value lookup for GI50; key = N#Cc1ccccc1NC(=O)/C(=N\NC(=O)c1ccncc1)C(c1cnc2ccc([N+](=O)[O-])cc2n1)[N+](=O)[O-] (stereo unspecified)
Result block: 86.9 µM (inactive)

Query block: Value lookup for GI50; key = Nc1ncc2c(n1)-c1ccccc1OC2N1CCOCC1 (stereo unspecified)
Result block: > 100 µM (inactive)

Query block: Value lookup for GI50; key = CC(C)=CCC[C@@H](C)/C=C/C=C(\C)C(=O)CC[C@@H]1CC[N@+]2(C)CCCC[C@H]12
Result block: 6.44 µM (inactive)

Query block: Value lookup for GI50; key = O=C1Nc2ccccc2/C1=C\c1c(-c2ccccc2)nc2n1CCS2
Result block: 39.3 µM (inactive)

Query block: Value lookup for GI50; key = Nc1nc(=O)n(C2OC(CO)C(O)C2O)c2ncc(-c3ccc(-c4ccccc4)cc3)nc12 (stereo unspecified)
Result block: > 100 µM (inactive)

Query block: Value lookup for GI50; key = CN(c1ccccc1)c1cc2ccccc2nn1
Result block: > 100 µM (inactive)

Query block: Value lookup for GI50; key = FC(F)(F)c1ccc2c(c1)nc(-c1ccccc1)n2CC1CCCN2CCCCC12 (stereo unspecified)
Result block: 18.8 µM (inactive)

Query block: Value lookup for GI50; key = CC(=O)OCC1OC(O[C@@H]2C[C@H]3C(C)(C)[C@H](OC(C)=O)CC[C@]3(C)[C@H]3CC[C@@]45C[C@H](O)C[C@H](C)[C@@H]4CC=C5[C@@]32C)C(O)C(O)C1O (stereo partly specified)
Result block: 4.01 µM (inactive)

Query block: Value lookup for GI50; key = COC1=CC(=C(C#N)/C(=N\c2ccccc2)SC)C=C(OC)C1=O
Result block: 3.84 µM (inactive)
